system: HEK293T (UBE3A T485A transfected, BAR Wnt reporter); experiment: Renilla luciferase signal (cell health) relative to plate median (fold (linear ratio)); higher = higher Renilla signal; conditions: concentration: 10 uM; 24 h
The full ranking holds about 1,100 compounds; the median of “Renilla luciferase signal (cell health) relative to plate median” is about 0.97, and the highest 2% start at about 1.6. Only a selection was taken, and the highest values are over-represented in it overall.
property-name: Renilla luciferase signal

{"columns": ["compound", "assay-result"],
 "data": [
  ["CN(C)C(=O)Nc1ccc(Cl)c(Cl)c1", 0.951],
  ["CN(Cc1cnc2nc(N)nc(N)c2n1)c1ccc(C(=O)N[C@@H](CCC(=O)O)C(=O)O)cc1 [Methotrexate]", 0.0865],
  ["O.O=C1[N-]S(=O)(=O)c2ccccc21.[Na+] [Sodium saccharin hydrate]", 1.35],
  ["Cc1cc(C=C2SC(=O)N(c3ccccc3)C2=O)c(C)n1-c1cccnc1", 0.979],
  ["OC[C@H]1O[C@@H]2O[C@H]3[C@H](O)[C@@H](O)[C@@H](O[C@H]4[C@H](O)[C@@H](O)[C@@H](O[C@H]5[C@H](O)[C@@H](O)[C@@H](O[C@H]6[C@H](O)[C@@H](O)[C@@H](O[C@H]7[C@H](O)[C@@H](O)[C@@H](O[C@H]1[C@H](O)[C@H]2O)O[C@@H]7CO)O[C@@H]6CO)O[C@@H]5CO)O[C@@H]4CO)O[C@@H]3CO", 1.05],
  ["N[C@@H](Cc1cc(I)c(Oc2ccc(O)c(I)c2)c(I)c1)C(=O)O", 2.47],
  ["O=C(O)Cc1cc(I)c(Oc2ccc(O)c(I)c2)c(I)c1", 0.852],
  ["Cc1occc(=O)c1O", 0.967],
  ["CN(C)C(=O)C1(N2CCCCC2)CCN(CC[C@@]2(c3ccc(Cl)c(Cl)c3)CN(C(=O)c3ccccc3)CCO2)CC1", 0.664]
]}

====

Item-by-item account of Renilla luciferase signal
system: HEK293T (UBE3A T485A transfected, BAR Wnt reporter); experiment: Renilla luciferase signal (cell health) relative to plate median (fold (linear ratio)); higher = higher Renilla signal; conditions: concentration: 10 uM; 24 h
Whole data set: some 1,100 compounds, median “Renilla luciferase signal (cell health) relative to plate median” near 0.97, cut for the highest 2% near 1.6. For the sample, the highest values were picked, then their nearest neighbours and some compounds at random.

{"columns": ["compound", "Renilla luciferase signal"],
 "data": [
  ["CC(C(C)N1CC(=O)NC(=O)C1)N1CC(=O)NC(=O)C1 (stereo unspecified)", 0.383],
  ["CCCN(CCC)C(=O)SCC", 0.918],
  ["CNC(CC(=O)O)C(=O)O (stereo unspecified)", 1.02],
  ["CCCCCCCCCCCCN1CCCC1=O", 0.929],
  ["C=CCc1cc(S(=O)(=O)c2ccc(O)c(CC=C)c2)ccc1O [4,4'-Sulfonylbis[2-(prop-2-en-1-yl)phenol]]", 1.34],
  ["CCCCCCc1ccc(O)cc1O", 0.888],
  ["C=CCCCCCCCCCCCC", 0.992],
  ["Cc1cc(NC(=O)C(=O)O)cc(C)c1Oc1ccc(O)c2c1CCC2", 0.767],
  ["Sc1nc2ccccc2s1", 0.768],
  ["O=C(O)c1cccc(C(=O)O)c1", 1.06],
  ["COc1ccc(-c2ccc(=N)n(CCCC(=O)O)n2)cc1", 0.935],
  ["CCOCCO", 1.38],
  ["Cc1ccc(C(C)C)cc1", 1.11],
  ["CC(C)(C)c1cc(O)ccc1O [tert-Butylhydroquinone]", 0.989],
  ["CCc1cc(C2=C(C(=O)[O-])N(c3ccccc3C(F)(F)F)S(=O)(=O)c3ccccc32)cc2c1OCO2.[K+] [Fandosentan potassium salt]", 0.887],
  ["Cc1ncc(CO)c(CO)c1O", 1],
  ["Cc1nc(-c2ccccn2)ncc1C(=O)Nn1cc(C)c2cc(F)ccc21", 1.05],
  ["O=C([O-])c1[nH]n(-c2ccc(S(=O)(=O)[O-])cc2)c(=O)c1/N=N/c1ccc(S(=O)(=O)[O-])cc1.[Na+].[Na+].[Na+]", 1.15],
  ["CC(C)c1cccc(C(C)C)c1", 1.17],
  ["Cc1cccc(Nc2cc(Cl)nc(SCC(=O)O)n2)c1C", 0.861],
  ["CCSC(=O)N(CC(C)C)CC(C)C [Butylate]", 1.09]
]}

====

Property: Renilla luciferase signal; scope: individual compounds
tested on: HEK293T (UBE3A T485A transfected, BAR Wnt reporter); experiment: Renilla luciferase signal (cell health) relative to plate median (fold (linear ratio)); higher = higher Renilla signal; settings: concentration: 1 uM; 24 h
The full ranking holds about 1,100 compounds; the median of “Renilla luciferase signal (cell health) relative to plate median” is about 0.97, and the highest 2% start at about 1.6. This excerpt belongs to a sample that is enriched for the highest values.
property-name: Renilla luciferase signal

{"columns": ["compound", "tested-system", "property-name", "assay-result"],
 "data": [
  ["O=C(Nc1ccc(Cl)cc1)Nc1ccc(Cl)c(Cl)c1", "HEK293T (UBE3A T485A transfected, BAR Wnt reporter)", "Renilla luciferase signal", 0.895],
  ["O=C(O)c1cccc(N(Cc2cccnc2)c2ccc(OC(F)F)c(OC(F)F)c2)c1", "HEK293T (UBE3A T485A transfected, BAR Wnt reporter)", "Renilla luciferase signal", 1.14],
  ["CCCCCCCC(=O)O", "HEK293T (UBE3A T485A transfected, BAR Wnt reporter)", "Renilla luciferase signal", 0.792],
  ["CC(C)(C)C(O)C(Cc1ccc(Cl)cc1)n1cncn1 (stereo not given)", "HEK293T (UBE3A T485A transfected, BAR Wnt reporter)", "Renilla luciferase signal", 1.06],
  ["CC(C)CCCCCCOC(=O)C1CCCCC1C(=O)OCCCCCCC(C)C (stereo not given) [Diisononyl cyclohexane-1,2-dicarboxylate]", "HEK293T (UBE3A T485A transfected, BAR Wnt reporter)", "Renilla luciferase signal", 1.13],
  ["CN(C)CCCN1c2ccccc2Sc2ccc(Cl)cc21.Cl [Chlorpromazine hydrochloride]", "HEK293T (UBE3A T485A transfected, BAR Wnt reporter)", "Renilla luciferase signal", 1.23],
  ["CCCCCCc1ccc(O)cc1O", "HEK293T (UBE3A T485A transfected, BAR Wnt reporter)", "Renilla luciferase signal", 1.04],
  ["CNC(CC(=O)O)C(=O)O (stereo not given)", "HEK293T (UBE3A T485A transfected, BAR Wnt reporter)", "Renilla luciferase signal", 0.949],
  ["Cc1ncc(CO)c(CO)c1O", "HEK293T (UBE3A T485A transfected, BAR Wnt reporter)", "Renilla luciferase signal", 0.873],
  ["CCN(CC)C(=O)c1cc(S(=O)(=O)Cc2ccccc2)c(N2CCC(c3ccccc3)CC2)cc1N(CC)CCN(C)C.O=C(O)C(F)(F)F [HMR1171 trifluoroacetate (1:1)]", "HEK293T (UBE3A T485A transfected, BAR Wnt reporter)", "Renilla luciferase signal", 0.767],
  ["Nc1ccc(Nc2ccccc2)cc1", "HEK293T (UBE3A T485A transfected, BAR Wnt reporter)", "Renilla luciferase signal", 0.984],
  ["O.O=C1[N-]S(=O)(=O)c2ccccc21.[Na+] [Sodium saccharin hydrate]", "HEK293T (UBE3A T485A transfected, BAR Wnt reporter)", "Renilla luciferase signal", 1.15],
  ["CCCCCCCCCCCCCCCCCC(=O)O", "HEK293T (UBE3A T485A transfected, BAR Wnt reporter)", "Renilla luciferase signal", 0.958],
  ["CSC(=O)c1cccc2nnsc12", "HEK293T (UBE3A T485A transfected, BAR Wnt reporter)", "Renilla luciferase signal", 1.05],
  ["O=C(O)c1ccccc1C(c1ccc(O)cc1)c1ccc(O)cc1", "HEK293T (UBE3A T485A transfected, BAR Wnt reporter)", "Renilla luciferase signal", 1.1],
  ["CCOc1cccc(-n2cc(C(=O)N3CCN(c4cc(C(=O)[O-])c5ccccc5c4)CC3)nc2-c2ccc(C)cc2)c1.[Na+]", "HEK293T (UBE3A T485A transfected, BAR Wnt reporter)", "Renilla luciferase signal", 0.966],
  ["CC(C)(C)CC(C)(C)c1ccc(O)c(-n2nc3ccccc3n2)c1", "HEK293T (UBE3A T485A transfected, BAR Wnt reporter)", "Renilla luciferase signal", 1.17],
  ["COc1ccc2c(c1)c(CC(=O)O)c(C)n2C(=O)c1ccc(Cl)cc1", "HEK293T (UBE3A T485A transfected, BAR Wnt reporter)", "Renilla luciferase signal", 1.15],
  ["CCNc1ccccc1", "HEK293T (UBE3A T485A transfected, BAR Wnt reporter)", "Renilla luciferase signal", 0.97],
  ["COCCOCCOC", "HEK293T (UBE3A T485A transfected, BAR Wnt reporter)", "Renilla luciferase signal", 1.3]
]}
